experiment: clinical; conditions: human, in vivo, po, Lower 90% CI of Concentration
Readout label: concentration at 10 day (µg/mL)
Expressed in µg/mL, but write only the number.

The recorded concentration at 10 day for entry CC(C)(C#Cc1ccc(-c2ccc(Cl)c3c(NS(C)(=O)=O)nn(CC(F)(F)F)c23)c([C@H](Cc2cc(F)cc(F)c2)NC(=O)Cn2nc(C(F)(F)F)c3c2C(F)(F)[C@@H]2C[C@H]32)n1)S(C)(=O)=O equals 0.0661

---

Test: clinical
Conditions: human, in vivo, po, Lower 90% CI of LEN concentration
Experimental: The objective of this study was to evaluate the pharmacokinetics (PK) of LEN during oral bridging period (OBP) to assess the adequacy of 300-mg PO once-weekly (QW) regimen for maintaining therapeutic concentrations between missed SC LEN doses. During OBP, sparse PK samples were collected at the start of OBP and every ˜10-12 weeks (without regard to a prespecified time since dose) until SC LEN was resumed. […] Oral bridging day was calculated from first dose date of Oral Bridging.
Readout label: concentration at 10 week

The recorded concentration at 10 week for entry CC(C)(C#Cc1ccc(-c2ccc(Cl)c3c(NS(C)(=O)=O)nn(CC(F)(F)F)c23)c([C@H](Cc2cc(F)cc(F)c2)NC(=O)Cn2nc(C(F)(F)F)c3c2C(F)(F)[C@@H]2C[C@H]32)n1)S(C)(=O)=O equals 66.1 ng/mL
